Parameter: % knock down after 10′. Scope: all listed entries.
# Test system: malaria mosquito (Anopheles gambiae)
# Measurement notes: Five-minute exposure bioassay, WHO Adult Mosquito Susceptibility Test Kit, treated filter paper
# Type: in vivo
# Assay conditions: Table 80, filter paper (mg/m^2), 10′
Test readout: % knock down after 10′ (%)

1. CNC(=O)Oc1cccc2c1OC(C)(C)O2 [5 mg Bendiocarb]    6
2. CNC(=O)Oc1cccc2c1OC(C)(C)O2 [20 mg Bendiocarb]    6
3. CNC(=O)Oc1cccc2c1OC(C)(C)O2 [10 mg Bendiocarb]    2
4. CC1(C)[C@H](C(=O)O[C@H](C#N)c2cccc(Oc3ccccc3)c2)[C@@H]1C=C(Br)Br [10 mg DTM]    2

###

# Tested on: malaria mosquito (Anopheles gambiae)
# Measurement notes: Five-minute exposure bioassay, WHO Adult Mosquito Susceptibility Test Kit, treated filter paper
# Assay type: in vivo
# Assay conditions: Table 80, filter paper (mg/m^2), 25′
Test readout: % knock down after 25′ (%)

1) CC1(C)[C@H](C(=O)O[C@H](C#N)c2cccc(Oc3ccccc3)c2)[C@@H]1C=C(Br)Br [10 mg DTM]    5
2) CNC(=O)Oc1cccc2c1OC(C)(C)O2 [10 mg Bendiocarb]    2
3) CC1(C)[C@H](C(=O)O[C@H](C#N)c2cccc(Oc3ccccc3)c2)[C@@H]1C=C(Br)Br [40 mg DTM]    92
4) CNC(=O)Oc1cccc2c1OC(C)(C)O2 [5 mg Bendiocarb]    6
5) CC1(C)[C@H](C(=O)O[C@H](C#N)c2cccc(Oc3ccccc3)c2)[C@@H]1C=C(Br)Br [5 mg DTM]    6
6) CC1(C)C(C=C(Br)Br)C1C(=O)OC(C#N)c1cccc(Oc2ccccc2)c1 (centres unmarked)    52
7) CNC(=O)Oc1cccc2c1OC(C)(C)O2 [20 mg Bendiocarb]    13
8) CNC(=O)Oc1cccc2c1OC(C)(C)O2 [40 mg bendiocarb]    74

###

# Test system: tropical house mosquito Culex quinquefasciatus (adults, 3 days old)
# Measurement notes: Efficacy of formulations on surfaces (glazed/unglazed tiles, plywood), ten 3 day old mosquitoes, 3 min exposure
# Assay type: in vivo
# Assay conditions: 9′; in acetone on glazed tiles; Table 84
The entries below come with measured % KD and Mortality values attached.
Test readout: % KD and Mortality (%)

1) CC1(C)CC(OC(=O)CCCCCCCCC(=O)OC2CC(C)(C)NC(C)(C)C2)CC(C)(C)N1    0
2) CNC(=O)Oc1cccc2c1OC(C)(C)O2    0
3) CC1(C)CC(O)CC(C)(C)N1[O]    0
4) CCCCCCCCON1C(C)(C)CC(OC(=O)CCCCCCCCC(=O)OC2CC(C)(C)N(OCCCCCCCC)C(C)(C)C2)CC1(C)C    3
5) COC(=O)CCCCCCCCC(=O)OC [1% Dimethyl sebacate]    0
6) O=C(CCCCCCCCC(=O)OCc1ccccc1)OCc1ccccc1    0
7) CC1(C)CC(O)CC(C)(C)N1    0
8) CN1C(C)(C)CC(O)CC1(C)C    0
9) O=C(O)CCCCCCCCC(=O)O    3
10) O=C(CCCCCCCCC(=O)ON1C(=O)CCC1=O)ON1C(=O)CCC1=O    0

###

# Test system: Musca domestica, susceptible strain WHO(N)
# Measurement notes: Contact efficacy against houseflies on filter papers in glass dishes
# Format: in vivo
# Assay conditions: 1.5 h; % a.i. conc. in acetone on filter papers; Table 97
Reported % knock down after is given for each of the following molecules.
Test readout: % knock down after (%)

1) Cc1ccc(O)c(-n2nc3ccccc3n2)c1 [0.5% Compound B]    0
2) CC1(C)C(C=C(Br)Br)C1C(=O)OC(C#N)c1cccc(Oc2ccccc2)c1 (centres unmarked) [0.0016% DTM]    90
3) CC1(C)[C@H](C(=O)O[C@H](C#N)c2cccc(Oc3ccccc3)c2)[C@@H]1C=C(Br)Br [0.00032% DTM]    30
4) CC1(C)[C@H](C(=O)O[C@H](C#N)c2cccc(Oc3ccccc3)c2)[C@@H]1C=C(Br)Br [0.000064% DTM]    0
5) CC1(C)[C@H](C(=O)O[C@H](C#N)c2cccc(Oc3ccccc3)c2)[C@@H]1C=C(Br)Br [0.0000128% DTM]    0
